- SYSTEM UNDER TEST: human cytochrome P450 51 (hCYP51) (Homo sapiens, UniProt Q16850)
- Sequence (Q16850 1-509): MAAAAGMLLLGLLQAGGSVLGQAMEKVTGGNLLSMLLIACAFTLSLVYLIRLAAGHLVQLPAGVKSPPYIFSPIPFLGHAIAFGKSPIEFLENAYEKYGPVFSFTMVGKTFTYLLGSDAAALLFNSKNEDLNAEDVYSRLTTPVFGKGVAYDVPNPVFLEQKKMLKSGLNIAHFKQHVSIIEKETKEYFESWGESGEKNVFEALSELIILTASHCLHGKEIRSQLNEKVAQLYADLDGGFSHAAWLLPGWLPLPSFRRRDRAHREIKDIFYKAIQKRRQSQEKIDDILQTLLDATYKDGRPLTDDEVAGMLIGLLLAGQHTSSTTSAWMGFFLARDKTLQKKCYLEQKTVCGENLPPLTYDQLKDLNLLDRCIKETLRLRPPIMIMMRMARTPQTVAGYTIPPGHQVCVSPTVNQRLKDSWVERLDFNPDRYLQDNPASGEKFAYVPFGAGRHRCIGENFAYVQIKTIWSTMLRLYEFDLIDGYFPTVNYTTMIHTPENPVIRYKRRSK
- ASSAY PROCEDURE: enzymatic assay, [[…]-3H]lanosterol conversion by purified hCYP51/CPR, radio-HPLC
- Type: biochemical
METRIC NAME: IC50 (µM)
Write the answer as a number in µM, unit excluded.

Q: Given `CC[C@@H]([C@H](C)O)n1ncn(-c2ccc(N3CCN(c4ccc(OC[C@@H]5CO[C@@](Cn6cncn6)(c6ccc(F)cc6F)C5)cc4)CC3)cc2)c1=O` , state its recorded IC50.
Ans: 8.3
